biological target: Hexose transporter 1 (Plasmodium falciparum) (UniProt O97467); assay: ST_JUDE_LEISH: Cytotoxicity at 2uM final concentration against transgenic Leishmania Mexicana promastigotes LmPfHT that are glucose transport deficient and complemented with the Plasmodium falciparum hexose transporter. Activity is measured by DNA content using SYBR green in vitro; format: functional
Could you please report measured inhibition for the items listed next?
Numbers only, in %.

Example cases with answers are listed next.
Looking for the measured inhibition of O=C(/C=C/C=C/c1ccccc1)NC1CCC(CN2CCC(c3c[nH]c4ccccc34)CC2)CC1 (stereo not given) , can you help?
0.67

Try this molecule too: Cc1ccc(CC(C)(C)NCC(O)c2cccc(C(F)(F)F)c2)cc1 (stereo not given)
2.91

Try this molecule too: O=C(/C=C/c1ccc(Cl)c(Cl)c1)NC1C2CCC1CC(CN1CCC(c3c[nH]c4ccccc34)CC1)C2 (stereo not given)
4.24

Try this molecule too: "CCCN(CCC)CCOC(=O)C(OCC)(c1ccccc1)c1ccccc1"
0.63

Further cases:
Looking for the measured inhibition of O=C(/C=C/c1ccc(Cl)cc1Cl)NC1CCC(CN2CCC(c3c[nH]c4ccccc34)CC2)CC1 (stereo not given) , can you help?
13.1

----------
Could you please report measured inhibition for the items listed next?
molecular target: Hexose transporter 1 (Plasmodium falciparum); assay: ST_JUDE_LEISH: Cytotoxicity at 2uM final concentration against transgenic Leishmania Mexicana promastigotes LmPfHT that are glucose transport deficient and complemented with the Plasmodium falciparum hexose transporter. Activity is measured by DNA content using SYBR green in vitro; type: functional
One number for each entry, in %.

Below is a list of molecules. For each, state its recorded inhibition.
1. COc1ccc(CN2CCN(CCOC(c3ccccc3)c3ccc(Cl)cc3)CC2)c(O)c1 (stereo not given)
2. COc1ccc(F)cc1-c1csc(N(c2ccc(F)cc2)C2CCNCC2)n1
3. CCOC(=O)c1c(C)n(C2CCCCC2)c2cc(Br)c(O)cc12
4. CC[C@H]1CN2CCc3cc(OC)c(OC)cc3[C@@H]2C[C@@H]1C[C@H]1NCCc2c1cc(OC)c(O)c2I
5. O=C(/C=C/c1ccc(Cl)c(Cl)c1)N1CCC(CN2CCC(c3c(Br)[nH]c4ccccc34)CC2)CC1

[10.7, 0.21, -0.38, 96.6, 0.45]

----------
target: Solute carrier family 2, facilitated glucose transporter member 1 (Homo sapiens) (UniProt P11166); assay: ST_JUDE_LEISH: Cytotoxicity at 2uM final concentration against transgenic Leishmania Mexicana promastigotes LmGLUT1 that are glucose transport deficient and complemented with the human glucose transporter GLUT1. Activity is measured by DNA content using SYBR green in vitro; type: functional
Sequence (P11166 whole entry): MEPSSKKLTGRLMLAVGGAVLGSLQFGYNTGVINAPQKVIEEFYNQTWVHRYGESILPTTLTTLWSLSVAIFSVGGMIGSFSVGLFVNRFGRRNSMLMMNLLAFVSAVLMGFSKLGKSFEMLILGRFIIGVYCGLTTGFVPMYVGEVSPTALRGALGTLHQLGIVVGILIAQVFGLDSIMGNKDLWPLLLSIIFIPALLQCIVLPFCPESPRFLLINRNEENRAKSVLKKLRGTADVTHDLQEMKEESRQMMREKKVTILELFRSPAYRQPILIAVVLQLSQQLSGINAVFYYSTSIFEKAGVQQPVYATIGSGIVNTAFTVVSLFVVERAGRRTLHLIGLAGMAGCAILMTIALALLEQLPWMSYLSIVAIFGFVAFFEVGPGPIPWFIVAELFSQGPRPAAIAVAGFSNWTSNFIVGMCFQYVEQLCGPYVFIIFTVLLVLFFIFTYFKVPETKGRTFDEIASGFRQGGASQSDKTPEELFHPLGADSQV
readout-label: inhibition (%)
Give bare numbers, in %.

Looking for the measured inhibition of CCN(CC)CCN1C(=O)C(O)(c2ccccc2Cl)c2c1cc(C(N)=O)cc2C(F)(F)F (stereo not given) , can you help?
3.25

Below is a list of compounds. For each, state its recorded inhibition.
1. Oc1ccccc1CNCC(O)c1cccc(C(F)(F)F)c1 (stereo not given)
2. OC1(c2ccc(Cl)c(C(F)(F)F)c2)CCN(CCOC2c3ccccc3CSc3ccc(Cl)cc32)CC1 (stereo not given)
3. COCCNCc1ccc(-c2ccc(CN(C(=O)NC3CCCCC3)C3CCN(Cc4ccccc4)CC3)cc2)cc1
4. C[C@@H]1C[C@@H]([C@H](O)CC2CC(=O)NC(=O)C2)C(=O)[C@@H](C)C1
5. COc1ccc(CN2CCN(CCOC(c3ccccc3)c3ccccc3)CC2)c(O)c1
6. c1ccc2c(NCCCCCCCCCNc3c4ccccc4nc4ccccc34)c3ccccc3nc2c1
7. O=C(/C=C/c1ccc(Cl)c(Cl)c1)Nc1cccc(CN2CCC(c3c[nH]c4ccc(O)cc34)CC2)c1
8. CC(Cc1ccc(Oc2ccc(Cl)cc2)cc1)NCC(O)c1cccc(Cl)c1 (stereo not given)

1: -0.54; 2: 2.52; 3: 2.65; 4: 90; 5: 3.13; 6: 3.03; 7: 0.9; 8: -2.67

Looking for the measured inhibition of COC(=O)c1ccc(CC(C)NCC(O)c2cccc(C(F)(F)F)c2)cc1C (stereo not given) , can you help?
0.54

----------
target: Solute carrier family 2, facilitated glucose transporter member 1 (Homo sapiens); assay: ST_JUDE_LEISH: Cytotoxicity at 2uM final concentration against transgenic Leishmania Mexicana promastigotes LmGLUT1 that are glucose transport deficient and complemented with the human glucose transporter GLUT1. Activity is measured by DNA content using SYBR green in vitro; type: functional
readout-label: inhibition (%)
One number for each entry, in %.

Below is a list of compounds. For each, state its recorded inhibition.
1. Cc1ccc(C[C@@H](C)NC[C@H](O)c2cccc(C(F)(F)F)c2)cc1
2. Oc1ccc(CN2CCN(CCOC(c3ccc(F)cc3)c3ccc(F)cc3)CC2)cc1Cl
3. CCCCn1c(C)c(C(=O)OCC)c2cc(OC(C)=O)c(Br)cc21
4. Oc1ccc2[nH]cc(C3=CCN(CCc4ccccc4)CC3)c2c1
5. Cc1ccc2c(C3=CCN(CCCCC4(C)C(=O)Nc5c(F)cccc54)CC3)c(C)[nH]c2c1 (stereo not given)
6. Oc1ccc(CN2CCN(CCOC(c3ccccc3)c3ccc(Cl)cc3)CC2)cc1Cl (stereo not given)

3.18
4.68
1.92
15.8
2.71
5.8

Below is a list of compounds. For each, state its recorded inhibition.
1. CC(=O)N(Cc1cccc(-c2cccc(CNCCc3ccccc3)c2)c1)C1CCN(Cc2ccccc2)CC1
2. CC[C@H]1CN2CC[C@H]1C[C@H]2[C@H](O)c1cc(-c2ccccc2C)nc2ccc(OC)cc12
3. O=C(/C=C/c1ccc(Cl)c(Cl)c1)NCC1CCC(N2CCC(c3c[nH]c4ccccc34)CC2)CC1 (stereo not given)
4. CC[C@@]1(O)C(=O)OCc2c1cc1n(c2=O)Cc2c-1nc1cc3c(cc1c2CN1CCOCC1)OCO3
5. CC(Cc1ccc(OCCCCOc2ccccc2)cc1)NCCC1CCCN1C (stereo not given)
6. OC(CNC1CCCCCCC1)c1ccc(Cl)c(Cl)c1 (stereo not given)
7. O=C(Nc1ccc(CN2CCC(c3c[nH]c4ccc(O)cc34)CC2)cc1)c1ccc(-c2ccccc2)cc1

[-0.27, 0.33, 5.53, 51.3, 103, 1.96, 5.73]

Below is a list of compounds. For each, state its recorded inhibition.
1. CC(=O)N(Cc1cccc(-c2cccc(CNCc3ccc4c(c3)OCO4)c2)c1)C1CCN(Cc2ccccc2)CC1
2. O=C(NC1CCC(CN2CCC(c3c[nH]c4ccccc34)CC2)CC1)c1cc2ccccc2o1 (stereo not given)
3. CC[C@H]1CN2CC[C@H]1C[C@H]2[C@H](O)c1cc(-c2ccc(SC)cc2)nc2ccc(OC)cc12

[6.88, 2.54, 4.44]

Below is a list of compounds. For each, state its recorded inhibition.
1. COC(=O)/C=C/c1ccc(CC(C)NCC(O)c2cccc(Cl)c2)cc1 (stereo not given)
2. COc1ccc(CCNCc2ccc3nc(N)cc(C)c3c2)cc1
3. CNCCc1c(O)ccc2ccccc12
4. C=Cc1cc(OC)c2c(c1)c(=O)oc1c2cc(OC)c2c(O)ccc([C@H]3O[C@H]([C@H](C)O)[C@H](O)[C@H]3O)c21

1. -0.32
2. -3.73
3. 2.95
4. 12.1

----------
Could you please report measured inhibition for the items listed next?
target: Solute carrier family 2, facilitated glucose transporter member 1 (Homo sapiens); test: ST_JUDE_LEISH: Cytotoxicity at 2uM final concentration against transgenic Leishmania Mexicana promastigotes LmGLUT1 that are glucose transport deficient and complemented with the human glucose transporter GLUT1. Activity is measured by DNA content using SYBR green in vitro; assay type: functional
Give bare numbers, in %.

Looking for the measured inhibition of CN1CCC(COC(=O)C(O)(c2ccccc2)c2ccccc2)C1 (centres undefined) , can you help?
2.1

Below is a list of compounds. For each, state its recorded inhibition.
1. CC[C@H]1CN2CC[C@@H]1C[C@H]2[C@H](O)c1cc(-c2c(C)noc2C)nc2ccc(OC)cc12
2. O=c1c2ccccc2nc(/C=C/c2ccc([N+](=O)[O-])cc2)n1-c1ccccn1
3. CC(=O)N(Cc1cccc(-c2ccc(CNCCc3ccccc3)cc2)c1)C1CCN(Cc2ccccc2)CC1
4. CC[C@H]1CN2CC[C@H]1C[C@H]2[C@H](O)c1ccnc2ccc(C#N)cc12
5. NCc1cccc(-c2cccc(CN(C(=O)Nc3ccccc3)C3CCN(Cc4ccccc4)CC3)c2)c1
6. N#Cc1ccc(N(CC(=O)NCCc2ccccc2)CC2CC2)c2ccccc12

[3.43, 10.9, 4.3, 0.59, 7.36, 1.68]

Below is a list of compounds. For each, state its recorded inhibition.
1. CCCc1cc([C@@H](O)[C@@H]2C[C@@H]3CCN2C[C@@H]3CC)c2ccccc2n1
2. COCC(=O)N(Cc1ccccc1-c1ccc(CNCCc2ccccc2)cc1)C1CCN(Cc2ccccc2)CC1
3. O=C(Nc1ccc(Oc2ccccc2)cc1)N1CCC(CN2CCC(c3c[nH]c4ccccc34)CC2)CC1

-0.67
0.08
1.64

Below is a list of compounds. For each, state its recorded inhibition.
1. CC[C@H]1CN2CC[C@H]1C[C@H]2[C@H](O)c1cc(N2CCC3CCCCC3C2)nc2ccc(OC)cc12 (some centres undefined)
2. CNCCCN(C)C(=O)Oc1c(Br)c(C)nc(C)c1-c1ccc(Oc2ccc(OC(F)(F)F)cc2)cc1
3. S=C(NCCc1ccc(Cl)cc1)N1CCC(CN2CCC(c3c[nH]c4ccccc34)CC2)CC1

1. 3.3
2. -0.18
3. 3.04

Below is a list of compounds. For each, state its recorded inhibition.
1. Cc1[nH]c2cc(Cl)ccc2c1C1=CCN(CCCCC2(C)C(=O)Nc3ccccc32)CC1 (centres undefined)
2. CC(Cc1ccc(SCCSc2ccccc2)cc1)NCC(O)c1cccc(Cl)c1 (centres undefined)
3. C=C[C@H]1CN2CC[C@H]1C[C@H]2[C@H](O)c1cc(/C=C/c2ccc(F)cc2)nc2ccc(OC)cc12
4. C=C[C@H]1CN2CC[C@H]1C[C@H]2[C@H](O)c1ccnc2ccccc12
5. CC(C)(C)c1ccc(Cn2nc(C(=O)N3CCN(C(=O)C4CCCO4)CC3)c3ccccc32)cc1 (centres undefined)
6. CN(C)CCCOc1ccc(CN2CCC(c3c[nH]c4ccc(NCC5CCCCC5)cc34)CC2)cc1

1: 2.01; 2: 0.69; 3: 2.95; 4: 0.68; 5: 0.73; 6: 3.02

Source listed as ChEMBL document CHEMBL3433997.
